In this section we review reported selectivity ratio values for a set of compounds.
method-description: Selectivity index, ratio of IC50 for human ovarian epithelial cells to IC50 for human OVCAR8 cells
Format: toxicity
condition-summary: human ovarian epithelial cells versus OVCAR8 cells, read-out: Ratio IC50

structure-smiles | selectivity ratio
COc1cc2c3c(c1OC)Oc1ccc(cc1)C[C@@H]1c4c(c(CN(C)C)c(OC)c(OC)c4Oc4ccc(cc4)C[C@H]3N(C)CC2)CCN1C | 2
COc1cc2c3c(c1OC)Oc1ccc(cc1)C[C@@H]1c4c(cc(OC)c(OC)c4Oc4ccc(cc4)C[C@H]3N(C)CC2)CCN1C | 3
C#CCNCc1c2c3c(c(OC)c1OC)Oc1ccc(cc1)C[C@@H]1c4c(cc(OC)c(OC)c4Oc4ccc(cc4)C[C@H]3N(C)CC2)CCN1C | 6

---

In this section we review reported IC50 values for a set of molecules.
Test system: A2780
method-description: Antiproliferative activity against human A2780 cells after 72 hrs by SRB assay
Assay type: functional, cell-based
condition-summary: A2780, 72 h
quantity-name: IC50 (µM)

structure-smiles | observed-result
C#CCNCc1c2c3c(c(OC)c1OC)Oc1ccc(cc1)C[C@@H]1c4c(cc(OC)c(OC)c4Oc4ccc(cc4)C[C@H]3N(C)CC2)CCN1C | 6.3
COc1cc2c3c(c1OC)Oc1ccc(cc1)C[C@@H]1c4c(cc(OC)c(OC)c4Oc4ccc(cc4)C[C@H]3N(C)CC2)CCN1C | 7.6
COc1cc2c3c(c1OC)Oc1ccc(cc1)C[C@@H]1c4c(c(CN(C)C)c(OC)c(OC)c4Oc4ccc(cc4)C[C@H]3N(C)CC2)CCN1C | 3.6
